Target: T1, IL-18 receptor (IL-18Rα/IL-18Rβ) overexpressed on HEK-Blue IL-18 cells (Homo sapiens (Human), UniProt Q13478 19-541; O95256 20-599)
T1 sequence 1: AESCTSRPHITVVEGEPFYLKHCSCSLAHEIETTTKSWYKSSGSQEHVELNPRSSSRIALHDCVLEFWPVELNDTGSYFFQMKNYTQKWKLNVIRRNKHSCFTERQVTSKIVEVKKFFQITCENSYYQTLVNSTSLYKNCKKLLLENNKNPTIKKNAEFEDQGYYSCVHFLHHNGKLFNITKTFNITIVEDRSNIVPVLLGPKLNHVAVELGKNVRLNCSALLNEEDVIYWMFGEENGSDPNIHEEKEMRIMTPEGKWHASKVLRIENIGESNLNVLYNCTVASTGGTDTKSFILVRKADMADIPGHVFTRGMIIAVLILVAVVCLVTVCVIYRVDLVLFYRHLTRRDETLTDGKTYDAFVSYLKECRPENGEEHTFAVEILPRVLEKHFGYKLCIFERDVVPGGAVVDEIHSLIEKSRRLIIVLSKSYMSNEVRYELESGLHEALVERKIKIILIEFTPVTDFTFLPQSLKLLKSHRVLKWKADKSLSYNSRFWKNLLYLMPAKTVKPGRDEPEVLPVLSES
T1 sequence 2: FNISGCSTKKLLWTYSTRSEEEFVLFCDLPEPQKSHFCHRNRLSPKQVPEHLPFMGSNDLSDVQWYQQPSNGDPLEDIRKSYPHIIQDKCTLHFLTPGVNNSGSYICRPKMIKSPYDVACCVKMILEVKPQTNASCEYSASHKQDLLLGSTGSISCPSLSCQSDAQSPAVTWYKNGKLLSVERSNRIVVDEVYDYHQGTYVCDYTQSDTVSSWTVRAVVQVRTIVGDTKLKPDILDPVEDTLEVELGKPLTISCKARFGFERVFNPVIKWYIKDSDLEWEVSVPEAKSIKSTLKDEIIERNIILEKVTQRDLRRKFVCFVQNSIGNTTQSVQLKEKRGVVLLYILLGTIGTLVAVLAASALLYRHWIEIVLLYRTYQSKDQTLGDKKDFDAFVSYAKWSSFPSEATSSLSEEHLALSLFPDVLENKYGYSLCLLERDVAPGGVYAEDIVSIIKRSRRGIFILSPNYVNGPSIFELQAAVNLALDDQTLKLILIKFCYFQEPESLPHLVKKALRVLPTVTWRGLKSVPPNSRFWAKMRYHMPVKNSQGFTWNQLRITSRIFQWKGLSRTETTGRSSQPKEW
Test: cell-based or functional assay
Note to self: values exactly at 5 fold are T. So HEK-Blue IL-18: Fold over Background at or above 5 fold is T, below is F.

| BINDER | QUALITATIVE_LABEL |
| --- | --- |
| DGL309 (bispecific antibody, V domains shown) V domain 1: QVQLQESGGGLVQPGGSARLSCVASGIIFNDYHMGWYRQAPGKQRDLVAGITAGGSTTYADSVKGRFTISRDNAKHTVYLQMNNLSPEDTAVYYCNTFYNAILDWGKGTLVTVSS V domain 2: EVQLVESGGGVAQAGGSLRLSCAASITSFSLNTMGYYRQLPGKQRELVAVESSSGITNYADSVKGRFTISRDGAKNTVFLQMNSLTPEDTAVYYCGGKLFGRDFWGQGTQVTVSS | F |
| DGL300 (bispecific antibody, V domains shown) V domain 1: QVQLQESGGGLVQPGGSLRLSCAASGSIFSTKGLGWYRQAPGEQRELVAGISSAGWIFYTQSVKGRFTMSRDNAKNTVYLQMNSLKPEDTAVYYCNSAQSGVPLRSWGQGTQVTVAS V domain 2: QVQLVESGGGLVLPGESLRLSCVVSGTIDNINSMGWYRQAPGKQRELVAYITKLGSANYADSVEGRFTISRDNAKKTVHLQMNSLKPEDTAVYYCHANERGRITWAQGTQVTVSS | F |
| DGL306 (bispecific antibody, V domains shown) V domain 1: QVQLVESGGGLVQAGGSLRLSCAASGRTFSKHAMGWFRQAPGKEREFVAAIDWSGGSTYYADSVKGRFTISRDNAKNTVYLQMDSLKPEDTAVYYCAADSYTDYAQLWLPELESEYDYWGQGTQVTVSS V domain 2: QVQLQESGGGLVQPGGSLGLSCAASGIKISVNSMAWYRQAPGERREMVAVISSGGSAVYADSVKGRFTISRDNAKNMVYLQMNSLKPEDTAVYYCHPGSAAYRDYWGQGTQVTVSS | T |
| DGL255 (bispecific antibody, V domains shown) V domain 1: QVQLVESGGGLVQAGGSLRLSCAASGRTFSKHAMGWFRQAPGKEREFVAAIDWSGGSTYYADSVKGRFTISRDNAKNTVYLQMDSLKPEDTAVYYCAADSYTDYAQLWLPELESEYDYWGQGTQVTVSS V domain 2: QVQLVESGGGLVQPGGSLRLSCAASRITFSIYDMGWYRQAPGKQRELVASITRRGSTNYADSTKGRFTISRDNGKNTMYLQGNSLKPEDTAVYYCNARDILGRDYWGQGTQVTVSS | F |
| DGL299 (bispecific antibody, V domains shown) V domain 1: EVQLVESGGGLVQPGGSLRLSCAASGSIFSINAMGWYRQAPGKQREVVATSTGGGMTNYADSVKGRFTISRDNAKNTVYLQMNSLKPEDTAVYYCNADKDPFFPGDYWGQGTQVTVSS V domain 2: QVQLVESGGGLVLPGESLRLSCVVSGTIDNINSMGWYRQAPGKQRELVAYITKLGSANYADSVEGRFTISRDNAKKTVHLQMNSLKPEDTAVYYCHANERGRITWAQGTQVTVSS | F |
